Tested on: B16 melanoma ip, C57BL/6 mice, median survival T/C
Measurement Description: NCI In Vivo Anticancer Drug Screen. Data for tumor model B16 Melanoma (intraperitoneal) in C57BL/6 mice
Reported Conditions: endpoint: median survival time; dose: 12.5 mg/kg/injection; schedule: Q01DX009 (ip); vehicle: saline; higher = longer survival
Toxic doses and inconclusive results are not listed.
Recorded Metric: T/C

See these solved cases before continuing.
{"columns": ["Compound", "T/C"],
 "data": [
  ["CC(=O)[C@@]1(O)CC[C@H]2[C@@H]3C[C@H](C)C4=CC(=O)C=C[C@]4(C)[C@@]3(F)[C@@H](O)C[C@@]21C", "105 % of control"],
  ["CS(=O)(=O)OCCCCOS(C)(=O)=O", "106 % of control"],
  ["N=[N+]=CC(=O)OCC(N)C(=O)O (centres undefined)", "86 % of control"]
]}

Q: Please look up its T/C: Cn1cc(NC(=O)c2cc(NC(=O)CN=C(N)N)cn2C)cc1C(=O)NCCC(=N)N
Ans: 100 % of control

Q: Now consider CN(C)CCCN1c2ccc(O)cc2Sc2ccc(Cl)cc21 .
Ans: 115 % of control

Q: Can you check NC(=O)Oc1cc(OC(N)=O)cc(N(CCCl)CCCl)c1 next?
Ans: 110 % of control

---

Tested on: B16 melanoma ip, C57BL/6 mice, median survival T/C
Measurement Description: NCI In Vivo Anticancer Drug Screen. Data for tumor model B16 Melanoma (intraperitoneal) in C57BL/6 mice
Reported Conditions: endpoint: median survival time; dose: 3.13 mg/kg/injection; schedule: Q01DX009 (ip); vehicle: saline; higher = longer survival
Inconclusive results and toxic doses are left out.
compounds and their reported T/C

{"columns": ["Compound", "Recorded Measurement"],
 "data": [
  ["O=NN(CCCl)C(=O)Nc1ccc(CCCl)cc1", "267 % of control"],
  ["COc1cc(N(CCCl)CCCl)ccc1NC(=O)c1ccccc1", "115 % of control"],
  ["N=[N+]=CC(=O)OCC(N)C(=O)O (stereo not given)", "96 % of control"],
  ["CCCCc1ccc(NC(=O)N(CCCl)N=O)cc1", "200 % of control"]
]}

// next entry
Q: What does the data say about its T/C? Entry: O=NN(CCCl)C(=O)Nc1ccc(CCO)cc1
Ans: 190 % of control

---

Test system: B16 melanoma ip, C57BL/6 mice, median survival T/C
Measurement Description: NCI In Vivo Anticancer Drug Screen. Data for tumor model B16 Melanoma (intraperitoneal) in C57BL/6 mice
Reported Conditions: endpoint: median survival time; dose: 1.0 mg/kg/injection; schedule: Q01DX009 (ip); vehicle: saline
Toxic doses and inconclusive results are not listed. Rule for the calls: active = survival T/C of 150% or more; inactive = T/C below 125% in these data.
// allowed return values: yes for active, no for inactive

{"columns": ["Molecule", "Assigned Category"],
 "data": [
  ["COc1cccc2c1C(=O)c1c(O)c3c(c(O)c1C2=O)C[C@@](O)(C(C)=O)C[C@@H]3OC1CC(N)C(O)C(C)O1 (some centres undefined)", "yes"]
]}

Q: Which outcome was entered for the molecule C1CN1c1nc(N2CC2)nc(N2CC2)n1 in this test?
Ans: no

Q: Lookup CO[C@H](C(=O)[C@@H](O)[C@@H](C)O)[C@@H]1Cc2cc3cc(OC4CC(OC5CC(O)C(O)C(C)O5)C(O)C(C)O4)c(C)c(O)c3c(O)c2C(=O)[C@H]1OC1CC(OC2CC(OC3CC(C)(O)C(O)C(C)O3)C(O)C(C)O2)C(O)C(C)O1 (some centres undefined)
Ans: no

Q: Moving on to COc1ccc2c3c(c4cc(OC)c(OC)cc4c2c1)C[C@H]1CCCCN1C3
Ans: no

---

System: B16 melanoma ip, C57BL/6 mice, median survival T/C
Measurement Description: NCI In Vivo Anticancer Drug Screen. Data for tumor model B16 Melanoma (intraperitoneal) in C57BL/6 mice
Reported Conditions: endpoint: median survival time; dose: 62.5 mg/kg/injection; schedule: Q01DX009 (ip); vehicle: saline; higher = longer survival
Inconclusive results and toxic doses are left out.
Recorded Metric: T/C

Use these answered entries as a reference point.
{"columns": ["Mol", "T/C"],
 "data": [
  ["CC(C)=CCC/C(C)=C/CO", "86 % of control"],
  ["CCOC(=O)n1cnc2ncnc(SC)c21", "105 % of control"],
  ["O=c1[nH]c(=O)c2n[nH]nc2[nH]1", "96 % of control"]
]}

Note: attention shifts to another entry.
Q: Sample C=CCN(CC=C)c1ncnc2[nH]ncc12 — what was its T/C?
Ans: 102 % of control

---

Tested on: B16 melanoma ip, C57BL/6 mice, median survival T/C
Measurement Description: NCI In Vivo Anticancer Drug Screen. Data for tumor model B16 Melanoma (intraperitoneal) in C57BL/6 mice
Reported Conditions: endpoint: median survival time; dose: 50.0 mg/kg/injection; schedule: Q01DX009 (ip); vehicle: saline; higher = longer survival
Inconclusive results and toxic doses are left out.
Recorded Metric: T/C

{"columns": ["Compound", "Recorded Measurement"],
 "data": [
  ["O=C1CN=C(c2ccc[nH]2)c2cc(Cl)ccc2N1", "97 % of control"],
  ["O=CC(S)CO (configuration not stated)", "120 % of control"],
  ["Nc1nc2n[nH]nc2c(=O)[nH]1", "103 % of control"],
  ["COc1c(C)c2c(c(O)c1C/C=C(\\C)CCC(=O)O)C(=O)OC2", "113 % of control"],
  ["CC(=O)[C@@]1(O)CC[C@H]2[C@@H]3C[C@H](C)C4=CC(=O)C=C[C@]4(C)[C@@]3(F)[C@@H](O)C[C@@]21C", "100 % of control"],
  ["CC1([N+](=O)[O-])COP(=O)(NC2CCCC2)OC1 (configuration not stated)", "100 % of control"],
  ["[N-]=[N+]=CC(=O)NCC(=O)NN", "107 % of control"],
  ["CO[C@H]1/C=C/O[C@@]2(C)Oc3c(C)c(O)c4c(O)c(c(/C=N/N5CCN(C)CC5)c(O)c4c3C2=O)NC(=O)/C(C)=C\\C=C\\[C@H](C)[C@H](O)[C@@H](C)[C@@H](O)[C@@H](C)[C@H](OC(C)=O)[C@@H]1C", "106 % of control"]
]}

Okay, now this compound:
Q: If you can, please state the reported T/C value of CCSCCC(N)C(=O)O (configuration not stated) .
Ans: 100 % of control

---

Tested on: B16 melanoma ip, C57BL/6 mice, median survival T/C
Measurement Description: NCI In Vivo Anticancer Drug Screen. Data for tumor model B16 Melanoma (intraperitoneal) in C57BL/6 mice
Reported Conditions: endpoint: median survival time; dose: 25.0 mg/kg/injection; schedule: Q01DX009 (ip); vehicle: saline; higher = longer survival
Inconclusive results and toxic doses are left out.
Recorded Metric: T/C

The examples below pair each entry with its known result.
{"columns": ["Compound", "T/C"],
 "data": [
  ["C[C@]12C=CC(=O)C=C1CC[C@@H]1[C@@H]2C(=O)C[C@@]2(C)[C@H]1CC[C@]2(O)C(=O)CO", "100 % of control"],
  ["Nc1nc2n[nH]nc2c(=O)[nH]1", "100 % of control"],
  ["Cn1cc(NC(=O)c2cc(NC(=O)CN=C(N)N)cn2C)cc1C(=O)NCCC(=N)N", "86 % of control"],
  ["COc1cc(/C=N\\O)nc(-c2ccccn2)c1", "100 % of control"],
  ["O=C(O)CCCc1ccc(N(CCCl)CCCl)cc1", "86 % of control"]
]}

Q: Name the recorded T/C for CN(C)CCCN1c2ccc(O)cc2Sc2ccc(Cl)cc21 .
Ans: 103 % of control

Q: Field entry: COc1c(C)c2c(c(O)c1C/C=C(\C)CCC(=O)O)C(=O)OC2
Ans: 106 % of control

Q: Further, for CN(C)/N=N/c1nc[nH]c1C(N)=O ?
Ans: 116 % of control

Q: Next entry: N=[N+]=CC(=O)OCC(N)C(=O)O (configuration not stated)
Ans: 90 % of control

Q: Try CN1CCN(CCCN2c3ccccc3Sc3ccc(C(F)(F)F)cc32)CC1 next.
Ans: 107 % of control

Q: Now this one: COc1cc(C[C@H]2c3cc(OC)c(OC)cc3CCN2C)c(Oc2cc3c(cc2OC)-c2c(OC)c(OC)cc4c2[C@H](C3)N(C)CC4)cc1OC
Ans: 96 % of control

Q: And for O=CC(S)CO (configuration not stated) ?
Ans: 120 % of control

Q: Okay, and CC(=O)[C@@]1(O)CC[C@H]2[C@@H]3C[C@H](C)C4=CC(=O)C=C[C@]4(C)[C@@]3(F)[C@@H](O)C[C@@]21C ?
Ans: 105 % of control

Sourced from PubChem BioAssay AID198
